The measurements presented in this section are drawn from patent US11999727B2.

- assayed-system: PRMT5 (Homo sapiens, UniProt O14744)
- Construct: purchased Viva (custom protein)
- Sequence (O14744 whole entry): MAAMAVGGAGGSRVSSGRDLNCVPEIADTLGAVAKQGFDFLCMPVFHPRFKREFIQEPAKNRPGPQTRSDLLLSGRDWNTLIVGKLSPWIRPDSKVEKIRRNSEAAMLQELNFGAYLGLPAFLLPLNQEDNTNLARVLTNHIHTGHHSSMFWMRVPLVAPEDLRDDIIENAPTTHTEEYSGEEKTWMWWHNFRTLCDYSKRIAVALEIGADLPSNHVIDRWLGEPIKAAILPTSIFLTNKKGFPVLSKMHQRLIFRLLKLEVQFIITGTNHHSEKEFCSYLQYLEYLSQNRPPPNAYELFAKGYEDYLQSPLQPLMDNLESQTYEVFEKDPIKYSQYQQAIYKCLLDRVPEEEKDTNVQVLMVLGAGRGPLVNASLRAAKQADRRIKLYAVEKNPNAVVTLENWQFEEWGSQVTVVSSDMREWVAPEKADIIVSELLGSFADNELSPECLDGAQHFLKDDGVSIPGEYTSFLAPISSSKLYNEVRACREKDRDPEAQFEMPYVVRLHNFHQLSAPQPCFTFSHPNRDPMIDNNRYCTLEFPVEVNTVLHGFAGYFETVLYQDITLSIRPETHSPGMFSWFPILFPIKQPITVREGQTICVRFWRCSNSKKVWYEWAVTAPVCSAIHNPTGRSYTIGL
- Sequence (Q9BQA1 whole entry partner): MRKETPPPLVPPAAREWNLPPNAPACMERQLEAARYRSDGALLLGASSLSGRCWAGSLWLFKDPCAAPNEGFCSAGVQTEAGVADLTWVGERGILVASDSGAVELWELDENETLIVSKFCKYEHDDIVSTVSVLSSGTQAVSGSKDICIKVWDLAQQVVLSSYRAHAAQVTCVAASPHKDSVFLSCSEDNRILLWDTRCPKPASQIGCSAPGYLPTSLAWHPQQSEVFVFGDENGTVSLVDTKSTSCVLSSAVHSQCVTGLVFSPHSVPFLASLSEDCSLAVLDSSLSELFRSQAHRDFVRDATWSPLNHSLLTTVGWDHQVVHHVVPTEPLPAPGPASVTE
- test-description: PRMT5 biochemical IC50 assay with no cofactor
- condition-parameters: PRMT5, no cofactor; read-out: No Cofactor/rel IC50
metric-name: IC50

Prompt: Endpoint output: IC50 of Cc1cc(NC(=O)C(=O)N2C[C@H](C)CC[C@H]2c2ccc(C(N)=O)s2)cnc1N (single isomer, unassigned) [Compound 823] . Value?
Response: > 500 nM

Prompt: Reported IC50, compound COc1ncc(NC(=O)C(=O)N2C[C@H](C)C(F)(F)C[C@H]2c2ccc(C)nc2)cc1C(N)=O (single isomer, unassigned) [Compound 936] : ____
Response: > 500 nM

Prompt: Form field: reported IC50 of Cc1cc(NC(=O)C(=O)N2C[C@H](C)CC[C@H]2c2ccccc2)cnc1C (single isomer, unassigned) [Compound 254]
Response: 50 to 500 nM

Continuing:
Prompt: For Cc1cc(NC(=O)C(=O)N2C[C@@H](C)CC[C@@H]2c2ccc3sc(N)nc3c2)cnc1N (single isomer, unassigned) [Compound 997] , what is its reported IC50?
Response: < 50 nM

Prompt: # get_value(readout='IC50', item= Cc1cc(NC(=O)C(=O)N2C[C@H](C)CC[C@H]2c2ccc3[nH]c(=O)ccc3c2)cnc1N (racemic) [Compound 671] )
Response: 50 to 500 nM

Prompt: Using the record for Cc1cc(NC(=O)C(=O)N2C[C@H](C)CC[C@H]2c2ccnn2C)cnc1N (racemic) [Compound 235] , report its IC50.
Response: 50 to 500 nM

Prompt: # input compound: Cc1cc(NC(=O)C(=O)N2C[C@@H](C)CC[C@@H]2c2cc(Cl)cc(C(F)(F)F)c2)cnc1N (single isomer, unassigned) [Compound 665] ; wanted: its IC50
Response: 50 to 500 nM

Prompt: Look at this compound and give its reported IC50. C[C@H]1CC[C@H](c2ccc(F)cc2)N(C(=O)C(=O)Nc2cnc(N)c(C3CC3)c2)C1 [Compound 989]
Response: 50 to 500 nM

Prompt: What does the record list as IC50 for CC(=O)N[C@H]1CCN(C(=O)C(=O)Nc2cncc(C(N)=O)c2)[C@@H](c2ccccc2)C1 (racemic) [Compound 745] ?
Response: > 500 nM

* * *

Below, each entry is listed with its recorded IC50.
- assayed-system: PRMT5 (Homo sapiens)
- Construct: purchased Viva (custom protein)
- test-description: PRMT5 biochemical IC50 assay with no cofactor
- condition-parameters: PRMT5, no cofactor; read-out: No Cofactor/rel IC50

The cases that follow already have their IC50 on record.
Prompt: Param readout= IC50; system= PRMT5 (Homo sapiens); entry= CCc1cc(NC(=O)C(=O)N2C[C@@H](C)CC[C@@H]2c2ccc(N3CC[C@H]4CCN(C)C[C@H]4C3)cc2)cnc1N (single isomer, unassigned) ; returns value.
Response: < 50 nM

Prompt: Identify the measured IC50 of Cc1cc(NC(=O)C(=O)N2C[C@H](C)CC[C@H]2c2ccc(S(C)(=O)=O)cc2)cnc1C (racemic) for PRMT5 (Homo sapiens).
Response: 50 to 500 nM

Prompt: Return IC50 measured with PRMT5 (Homo sapiens) given this molecule: CNc1cccc([C@@H]2CCCCN2C(=O)C(=O)Nc2cnc(N)c(C)c2)c1 (single isomer, unassigned)
Response: > 500 nM

New cases:
Prompt: Provide the documented IC50 with PRMT5 (Homo sapiens) as the system for Cc1cc(NC(=O)C(=O)N2CCCC[C@@H]2c2ccc3[nH]ncc3c2)cnc1N (single isomer, unassigned)
Response: > 500 nM

Prompt: Record lookup: for PRMT5 (Homo sapiens), what IC50 belongs to Cc1cc(NC(=O)C(=O)N2CCCC[C@H]2C(C)C)cnc1N (single isomer, unassigned) ?
Response: 50 to 500 nM

Prompt: Identify the measured IC50 of Cc1ncc(NC(=O)C(=O)N2C[C@H](C)CC[C@H]2c2ccccc2)cc1C(N)=O (single isomer, unassigned) for PRMT5 (Homo sapiens).
Response: > 500 nM

Prompt: Kindly state the measured IC50 obtained for CC(=O)N1CCC(c2cccc([C@@H]3CC[C@@H](C)CN3C(=O)C(=O)Nc3cnc(N)c(C)c3)c2)CC1 (single isomer, unassigned) with PRMT5 (Homo sapiens).
Response: > 500 nM
